# system-tested: BRG-1 (Homo sapiens, UniProt P51532)
# Sequence (P51532 whole entry): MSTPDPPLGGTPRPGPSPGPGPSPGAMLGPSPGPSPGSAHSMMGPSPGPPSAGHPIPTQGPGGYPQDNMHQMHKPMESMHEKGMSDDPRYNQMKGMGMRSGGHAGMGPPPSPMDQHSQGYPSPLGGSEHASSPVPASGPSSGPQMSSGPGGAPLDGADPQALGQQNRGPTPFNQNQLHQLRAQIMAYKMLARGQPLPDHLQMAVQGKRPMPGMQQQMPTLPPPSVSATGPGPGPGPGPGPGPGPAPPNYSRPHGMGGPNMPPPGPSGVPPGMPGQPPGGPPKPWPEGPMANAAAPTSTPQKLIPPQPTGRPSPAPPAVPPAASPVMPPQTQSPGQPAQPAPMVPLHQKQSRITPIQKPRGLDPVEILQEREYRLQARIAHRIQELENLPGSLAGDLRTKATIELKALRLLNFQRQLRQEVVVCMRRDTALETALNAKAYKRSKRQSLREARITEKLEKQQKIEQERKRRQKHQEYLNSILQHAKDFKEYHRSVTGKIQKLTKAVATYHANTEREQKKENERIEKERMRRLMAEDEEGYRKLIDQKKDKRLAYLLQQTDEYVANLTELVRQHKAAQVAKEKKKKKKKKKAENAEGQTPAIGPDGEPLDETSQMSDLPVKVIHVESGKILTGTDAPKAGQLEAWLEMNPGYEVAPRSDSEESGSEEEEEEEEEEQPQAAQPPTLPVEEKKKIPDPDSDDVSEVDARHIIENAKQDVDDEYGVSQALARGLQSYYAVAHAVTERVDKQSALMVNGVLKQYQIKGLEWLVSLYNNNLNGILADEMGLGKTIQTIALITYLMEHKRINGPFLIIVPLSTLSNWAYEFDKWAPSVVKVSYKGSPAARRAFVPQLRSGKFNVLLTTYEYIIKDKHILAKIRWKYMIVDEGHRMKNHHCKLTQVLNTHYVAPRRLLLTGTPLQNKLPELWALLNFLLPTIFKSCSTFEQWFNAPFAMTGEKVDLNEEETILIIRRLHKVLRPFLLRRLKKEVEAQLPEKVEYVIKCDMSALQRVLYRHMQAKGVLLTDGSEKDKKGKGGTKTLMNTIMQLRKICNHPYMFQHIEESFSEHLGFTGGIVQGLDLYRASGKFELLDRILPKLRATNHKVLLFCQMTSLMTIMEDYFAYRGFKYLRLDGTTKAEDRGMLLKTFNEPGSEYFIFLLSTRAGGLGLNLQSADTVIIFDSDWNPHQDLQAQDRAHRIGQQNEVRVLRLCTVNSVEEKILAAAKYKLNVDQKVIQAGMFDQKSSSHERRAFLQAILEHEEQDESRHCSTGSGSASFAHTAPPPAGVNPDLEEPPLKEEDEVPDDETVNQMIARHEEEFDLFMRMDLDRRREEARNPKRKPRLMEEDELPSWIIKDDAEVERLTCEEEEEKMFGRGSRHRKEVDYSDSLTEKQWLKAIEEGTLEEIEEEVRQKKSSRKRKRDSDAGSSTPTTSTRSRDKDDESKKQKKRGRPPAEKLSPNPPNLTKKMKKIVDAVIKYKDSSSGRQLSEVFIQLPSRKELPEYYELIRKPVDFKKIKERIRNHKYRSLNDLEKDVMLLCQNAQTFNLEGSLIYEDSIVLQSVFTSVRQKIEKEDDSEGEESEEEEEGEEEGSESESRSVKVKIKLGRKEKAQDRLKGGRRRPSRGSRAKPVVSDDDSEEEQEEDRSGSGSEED
# protocol-description: ATPase catalytic activity assay (ADP-Glo), BRG-1
measure: IC50

Past entries and their recorded results:
IN: Determine its reported IC50: COc1cc(C(C)(C)C)ccc1-c1ccc2cnc(CNC(=O)c3ccc4c(c3)[C@](C)(C#N)COC4)cc2n1
OUT: > 1 µM

IN: Determine its reported IC50: C[C@@]1(C#N)COCc2ccc(C(=O)NCc3cc4nc(-c5ccn6nccc6c5)ccc4cn3)cc21
OUT: 0.1 to 0.5 µM

IN: Determine its reported IC50: C[C@@]1(C#N)COCc2ccc(C(=O)NCc3cc4nc(-c5cnn6c5OCCC6)ccc4cn3)cc21
OUT: 0.5 to 1 µM

Next:
IN: Determine its reported IC50: C[C@H]1COCCN1c1nccc(-c2ccc3cnc(CNC(=O)c4ccc5c(c4)[C@](C)(C#N)COC5)cc3n2)n1
OUT: 0.5 to 1 µM

IN: Determine its reported IC50: C[C@@H]1COCCN1c1nccc(-c2ccc3cnc(CNC(=O)c4ccc5c(c4)[C@](C)(C#N)COC5)cc3n2)n1
OUT: 0.1 to 0.5 µM

IN: Determine its reported IC50: O=C(NCc1cc2nc(-c3cncc(C4CC4)n3)ccc2cn1)c1cnc2c(c1)[C@@](F)(C(F)F)CCO2
OUT: > 1 µM

IN: Determine its reported IC50: COc1cc(F)ccc1-c1ccc2cnc(CNC(=O)c3ccc4c(c3)[C@](C)(C#N)COC4)cc2n1
OUT: 0.1 to 0.5 µM

---

# system-tested: BRG-1 (Homo sapiens, UniProt P51532)
# protocol-description: ATPase catalytic activity assay (ADP-Glo), BRG-1
# condition-set: 1 h, read-out: BRG1 Max % Inhibition, ADP-Glo, 30 nM BRG-1, 400 μM ATP
measure: Emax (%)

IN: Determine its reported Emax: C[C@@]1(C#N)COCc2ccc(C(=O)NCc3cc(C#Cc4cccc(C(F)F)c4)ccn3)cc21 [Compound 17]
OUT: 58

IN: Determine its reported Emax: COc1ccc([C@H]2C[C@@H](c3ccnc(CNC(=O)c4ccc5c(c4)[C@](C)(C#N)COC5)c3)C2)cc1 [Compound 70]
OUT: 55

(P) COc1cc(F)cc(-c2ccc3cnc(CNC(=O)c4ccc5c(c4)[C@](C)(C#N)COC5)cc3n2)c1 [Compound 101]
(Q) COC[C@H](NC(=O)c1ccc2c(c1)[C@](C)(C#N)COC2)c1cc(C#Cc2ccccc2)ccn1 [Compound 43]
IN: In terms of reported Emax, does P or Q have the smaller number? Choose, then provide that item's label.
OUT: Q

(A) COCCN1CCN(c2cccc(-c3ccc4cnc(CNC(=O)c5ccc6c(c5)[C@](C)(C#N)COC6)cc4n3)n2)CC1 [Compound 132]
(B) COc1cc(C)nn1-c1ccc2cnc(CNC(=O)c3ccc4c(c3)[C@](C)(C#N)COC4)cc2n1 [Compound 195]
IN: In terms of reported Emax, does A or B have the smaller number? Choose, then provide that item's label.
OUT: B
(B: 47%, A: 71%)

(1) C[C@@]1(C#N)COCc2ccc(C(=O)NCc3cc4c(cn3)CCN(c3cccc(N5CCC5)n3)C4)cc21 [Compound 402]
(2) CNC(=O)c1ccc(-c2ccc3cnc(CNC(=O)c4ccc5c(c4)[C@](C)(F)COC5)cc3n2)cn1 [Compound 260]
IN: Return label of the item with the larger Emax. Candidates: 1 , 2 . Choose, then provide that item's label.
OUT: 1
(1: 74%, 2: 42%)

(1) C[C@@]1(C#N)COCc2ccc(C(=O)NCc3cc4nc(-c5ccnc(N6C[C@@H]7C[C@H]6CO7)n5)ccc4cn3)cc21 [Compound 340]
(2) C[C@@]1(C#N)COCc2ccc(C(=O)NCc3cc4nc(N5CCCC5)ccc4cn3)cc21 [Compound 514]
(3) CN1CC(c2cccc(-c3ccc4cnc(CNC(=O)c5ccc6c(c5)[C@](C)(C#N)COC6)cc4n3)c2)C1 [Compound 421]
IN: With regard to Emax, arrange the entries in ascending order, please. The response must list the labels following the requested ordering.
OUT: 3, 2, 1
(3: 37%, 2: 59%, 1: 91%)

(1) C[C@@]1(C#N)COCc2ccc(C(=O)NCc3cc4nc(-c5ccnc(N6C[C@H]7C[C@@H]6CO7)n5)ccc4cn3)cc21 [Compound 310]
(2) C[C@@]1(C#N)COCc2ccc(C(=O)NCc3cc(/C(F)=C(\F)c4ccccc4)ccn3)cc21 [Compound 9]
IN: In terms of reported Emax, does 1 or 2 have the smaller number? Choose, then provide that item's label.
OUT: 2

(A) COc1cccc2c1CCN(c1ccnc(CNC(=O)c3ccc4c(c3)[C@](C)(C#N)COC4)c1)C2 [Compound 56]
(B) C[C@@]1(C#N)COCc2ccc(C(=O)NCc3cc4nc(-c5ccccc5C(F)F)ccc4cn3)cc21 [Compound 521]
IN: In terms of reported Emax, does A or B have the smaller number? Choose, then provide that item's label.
OUT: B
(B: 34%, A: 92%)

(a) C[C@@]1(C#N)COCc2ccc(C(=O)NCc3cc4nc(-c5ccnc(N6CCC6)c5F)ccc4cn3)cc21 [Compound 412]
(b) C[C@@]1(C#N)COCc2ccc(C(=O)NCc3cc4nc(-c5cnc(N6CCC6)cn5)ccc4cn3)cc21 [Compound 414]
IN: Return label of the item with the larger Emax. Candidates: a , b . Choose, then provide that item's label.
OUT: a
(a: 98%, b: 67%)

---

# system-tested: BRG-1 (Homo sapiens, UniProt P51532)
# protocol-description: ATPase catalytic activity assay (ADP-Glo), BRG-1
# condition-set: 1 h, read-out: BRG1 Max % Inhibition, ADP-Glo, 30 nM BRG-1, 400 μM ATP
measure: Emax (%)

Past entries and their recorded results:
IN: Determine its reported Emax: COc1cncc(-c2ccc3cnc(CNC(=O)c4ccc5c(c4)[C@](C)(C#N)COC5)cc3n2)n1
OUT: 89

IN: Determine its reported Emax: C[C@@]1(C#N)COCc2ccc(C(=O)NCc3cc4cc(-c5ccnc(N6CCC6)c5F)cnc4cn3)cc21
OUT: 86

IN: Determine its reported Emax: C[C@@]1(C#N)COCc2ncc(C(=O)NCc3cc4nc(-c5cccc(N6CCC6)n5)ccc4cn3)cc21
OUT: 96

(P) C[C@@]1(C#N)COCc2ccc(C(=O)NCc3cc4nc(-c5ccc6ccc(=O)n(C7CC7)c6n5)ccc4cn3)cc21
(Q) C[C@@]1(C#N)COCc2ccc(C(=O)NCc3cc4nc(C5CCOCC5)ccc4cn3)cc21
IN: In terms of reported Emax, does P or Q have the smaller number? Choose, then provide that item's label.
OUT: Q

(I) C[C@@]1(C#N)COCc2ccc(C(=O)NCc3cc4nc(-c5ccnc(N6CCOCC6)n5)ccc4cn3)cc21
(II) Cc1cncc(-c2ccc3cnc(CNC(=O)c4ccc5c(c4)[C@](C)(C#N)COC5)cc3n2)n1
(III) COCCN1CCC(c2cccc(-c3ccc4cnc(CNC(=O)c5ccc6c(c5)[C@](C)(C#N)COC6)cc4n3)n2)CC1
IN: Order the 3 compounds from highest to lowest Emax. The response must list the labels following the requested ordering.
OUT: I, II, III
(I: 95%, II: 65%, III: 39%)

(a) CNC(=O)c1cccc(-c2ccc3cnc(CNC(=O)c4ccc5c(c4)[C@](C)(C#N)COC5)cc3n2)c1F
(b) C[C@@]1(C#N)COCc2ccc(C(=O)NCc3cc4nc(-c5cccnc5)sc4cn3)cc21
IN: Return label of the item with the larger Emax. Candidates: a , b . Choose, then provide that item's label.
OUT: a

(I) COc1nn(C)cc1-c1ccc2cnc(CNC(=O)c3ccc4c(c3)[C@](C)(C#N)COC4)cc2c1
(II) Cn1cccc(-c2ccc3cnc(CNC(=O)c4ccc5c(c4)[C@](C)(C#N)COC5)cc3n2)c1=O
IN: In terms of reported Emax, does I or II have the smaller number? Choose, then provide that item's label.
OUT: II

---

# system-tested: BRG-1 (Homo sapiens, UniProt P51532)
# protocol-description: ATPase catalytic activity assay (ADP-Glo), BRG-1
Catalogue of IC50 readings, one per entry.

Past entries and their recorded results:
IN: Determine its reported IC50: C[C@@]1(C#N)COCc2ccc(C(=O)NCc3cc4nc(-c5ccccc5)sc4cn3)cc21
OUT: > 1000 nM

IN: Determine its reported IC50: CN1CCC(C(=O)N2CCN(c3cccc(-c4ccc5cnc(CNC(=O)c6ccc7c(c6)[C@](C)(C#N)COC7)cc5n4)n3)CC2)CC1
OUT: 500 to 1000 nM

IN: Determine its reported IC50: C[C@@]1(F)COCc2ccc(C(=O)NCc3cc4nc(-c5ccnc(N6CCC6)n5)ccc4cn3)cc21
OUT: 100 to 500 nM

IN: Determine its reported IC50: COc1cccc2c1CCN(c1ccnc(CNC(=O)c3ccc4c(c3)[C@](C)(C#N)COC4)c1)C2
OUT: 100 to 500 nM

IN: Determine its reported IC50: C[C@@]1(C#N)COCc2ccc(C(=O)NCc3cc4cc(-c5nccc(N6CCC6)n5)ccc4nn3)cc21
OUT: 100 to 500 nM

IN: Determine its reported IC50: C[C@@]1(C#N)COCc2ccc(C(=O)NCc3cc4nc(-c5ccn6ncc(C(F)F)c6n5)ccc4cn3)cc21
OUT: 100 to 500 nM

IN: Determine its reported IC50: C[C@@]1(C#N)COCc2ccc(C(=O)NCc3cc4c(nn3)CCN(c3cncc(N5CCC5)n3)C4)cc21
OUT: > 1000 nM

IN: Determine its reported IC50: C[C@@]1(C#N)COCc2ccc(C(=O)NCc3cc(/C=C(\F)c4ccccc4)ccn3)cc21
OUT: > 1000 nM

Next:
IN: Determine its reported IC50: C[C@@]1(C#N)COCc2ccc(C(=O)NCc3cc4nc(-c5cccc(N6CCCC6)n5)ccc4cn3)cc21
OUT: > 1000 nM

IN: Determine its reported IC50: C[C@@H]1CN(c2nccc(-c3ccc4cnc(CNC(=O)c5ccc6c(c5)[C@](C)(C#N)COC6)cc4n3)n2)CCO1
OUT: > 1000 nM

IN: Determine its reported IC50: Cc1nn(C2COC2)cc1-c1ccc2cnc(CNC(=O)c3ccc4c(c3)[C@](C)(C#N)COC4)cc2n1
OUT: > 1000 nM

IN: Determine its reported IC50: COC(=O)N1CCC(C#Cc2ccnc(CNC(=O)c3ccc4c(c3)[C@](C)(C#N)COC4)c2)CC1
OUT: > 1000 nM

IN: Determine its reported IC50: C[C@@]1(C#N)COCc2ccc(C(=O)NCc3cc4nc(-c5ccccc5C(F)F)ccc4cn3)cc21
OUT: > 1000 nM

IN: Determine its reported IC50: O=C(NCc1cc2nc(-c3cncc(C4CC4)n3)ccc2cn1)c1cnc2c(c1)[C@](F)(C(F)F)COC2
OUT: 100 to 500 nM

IN: Determine its reported IC50: O=C(NCc1cc(C#Cc2ccccc2)ccn1)c1ccc2c(c1)[C@@](F)(C(F)F)COC2
OUT: > 1000 nM
